Where do these numbers come from? They come from ChEMBL document CHEMBL1128643.

- Organism: Rattus norvegicus
- test.summary: Compound was evaluated for agonist activity at 10 uM exhibiting moderate antagonism of [3H]MK-801 binding relative to 100% control
- Format: functional
- Parameters: unit: % of control
Provide the reported Activity of each item.
Give bare numbers.

INSERT INTO results (compound, measured_endpoint, numeric_readout) VALUES
  ('C(CCNCCCCN[C@]12C[C@H]3C[C@H](C[C@H](C3)C1)C2)CNCCCCNC12C[C@H]3C[C@@H](C1)C[C@@H](C2)C3.Cl', 'Activity', 15),
  ('CNCCCNCCCNCCCNC', 'Activity', 87.9);

I would be grateful if you could provide Activity for each of the following entries.
1. CCNCCCCNCCCCNCCCCNCC
2. CCNCCCNCCCCNCCCNCC [BIS(ETHYL)SPERMINE]
3. CNCCCCNCCCCNCCCCNC
4. CC(C)(C)NCCCCNCCCCNCCCCNC(C)(C)C

[A]
53.9
63.7
76.3
33
